target: Serine/threonine-protein kinase 10 (Homo sapiens); details: at 1 µM;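 note: reported value is the mean percent inhibition of LOK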
I'd appreciate it if you could label each record using inhibition and these ranges: L (below 7%), M (7% to below 20%), H (20% or more)

- Cc1c2ccc(N(C)c3ccnc(Nc4cccc(S(N)(=O)=O)c4)n3)cc2nn1C: H
- COC(=O)Nc1nc2cc(Oc3ccc(NC(=O)Nc4ccccc4)cc3)ccc2[nH]1: M
- COc1ccc(Nc2ncc(-c3ccccc3)o2)cc1OC: M
- COc1c(C(N)=O)cc(-c2ccc(Cl)cc2)cc1-c1ccc(S(N)(=O)=O)cc1: L
- COc1cccc(Nc2nccc(-c3cnn4ncccc34)n2)c1: M
- CCS(=O)(=O)c1ccc(OC)c(Nc2ncc(-c3cccc(F)c3)o2)c1: H
- Fc1cccc(COc2ccc(Nc3ncncc3C#Cc3ccccc3)cc2Cl)c1: M
- COc1ccc2ncn(-c3cc(O[C@H](C)c4ccccc4C(F)(F)F)c(C(N)=O)s3)c2c1: H
- CC1=C(C(=O)Nc2ccc3[nH]nc(C)c3c2)C(c2ccc(C(F)(F)F)cc2)CC(=O)N1 (stereo not drawn): L
- NS(=O)(=O)c1ccc(N/N=C2\C(=O)Nc3cccc(CCc4ccncc4)c32)cc1: L
- c1cnn2ncc(-c3ccnc(NCCCN4CCOCC4)n3)c2c1: L
- CCn1c(-c2nonc2N)nc2cncc(C(=O)NCCNC)c21: M
- CS(=O)(=O)CCNCc1ccc(-c2ccc3ncnc(Nc4ccc(OCc5ccccc5)cc4)c3c2)o1: M
- CS(=O)(=O)Nc1ccc(-c2cc(-c3ccccc3)cc(C(N)=O)c2N)cc1: L
- Cc1cc(O)cc(C)c1/C=C/c1cncc(C(=O)OC(C)(C)C)c1: M
- COc1cc(Nc2ncc(-c3ccccc3)o2)cc(OC)c1: M

----------
target: Ribosomal protein S6 kinase alpha-2 (Homo sapiens) (UniProt Q15349); details: at 1 µM;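 note: value is the mean inhibition of RSK3 within GSK PKIS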
Sequence (Q15349 whole entry): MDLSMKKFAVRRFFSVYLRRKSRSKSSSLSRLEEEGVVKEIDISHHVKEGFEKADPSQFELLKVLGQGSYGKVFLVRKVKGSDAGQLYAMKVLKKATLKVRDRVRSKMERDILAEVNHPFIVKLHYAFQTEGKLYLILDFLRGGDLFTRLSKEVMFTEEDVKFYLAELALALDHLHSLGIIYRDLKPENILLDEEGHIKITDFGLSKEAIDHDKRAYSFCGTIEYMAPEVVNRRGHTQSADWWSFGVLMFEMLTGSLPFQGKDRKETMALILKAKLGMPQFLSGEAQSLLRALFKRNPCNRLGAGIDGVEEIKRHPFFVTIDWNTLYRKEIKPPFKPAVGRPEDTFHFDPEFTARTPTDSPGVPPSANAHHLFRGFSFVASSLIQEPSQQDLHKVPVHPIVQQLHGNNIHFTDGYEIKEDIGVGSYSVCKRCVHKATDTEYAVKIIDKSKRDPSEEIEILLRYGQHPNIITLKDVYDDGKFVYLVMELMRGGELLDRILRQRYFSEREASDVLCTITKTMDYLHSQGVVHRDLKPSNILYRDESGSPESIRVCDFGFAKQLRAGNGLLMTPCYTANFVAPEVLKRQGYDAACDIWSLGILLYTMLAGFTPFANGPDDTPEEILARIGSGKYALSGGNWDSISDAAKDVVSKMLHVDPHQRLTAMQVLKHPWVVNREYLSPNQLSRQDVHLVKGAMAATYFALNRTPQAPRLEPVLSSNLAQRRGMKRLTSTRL
Below, each entry is listed alongside its reported inhibition.
measured-quantity: inhibition (%)

• Fc1cccc(COc2ccc(Nc3ncncc3C#Cc3ccccc3)cc2Cl)c1 = 2.81
• c1ccc(-c2n[nH]cc2-c2ccnc(-c3ccc(OCCn4ccnc4)cc3)c2)nc1 = 1.36
• COc1cccc(-n2ncc3c(N/N=C/c4ccc(C(=O)NCCN(C)C)cc4)ncnc32)c1 = 8.18
• COc1cccc(Nc2nccc(-c3cnn4ncccc34)n2)c1 = 2.4
• COc1cc(Nc2ncc(-c3ccccc3)o2)cc(OC)c1 = 3.57
• Cc1cc(O)cc(C)c1/C=C/c1cncc(C(=O)OC(C)(C)C)c1 = 1.41
• COc1ccc(-c2nn3ncccc3c2-c2ccnc(Nc3ccc(F)c(F)c3)n2)cc1 = 2.69
• FC(F)(F)CNc1nccc(-c2cnn3ncccc23)n1 = 1.84
• O=C1Nc2ccccc2/C1=C1\CCc2cc(O)ccc21 = 42.1
• CN(c1ccc(NC(=O)NCCN2CCOCC2)cc1)c1ccnc(Nc2ccc(CS(C)(=O)=O)cc2)n1 = 2.28

----------
target: Tyrosine-protein kinase Lyn (Homo sapiens) (UniProt P07948); conditions: at 0.1 µM;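 note: mean inhibition of the LYN A splice variant of the kinase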
Sequence (P07948 2-512 limits assumed): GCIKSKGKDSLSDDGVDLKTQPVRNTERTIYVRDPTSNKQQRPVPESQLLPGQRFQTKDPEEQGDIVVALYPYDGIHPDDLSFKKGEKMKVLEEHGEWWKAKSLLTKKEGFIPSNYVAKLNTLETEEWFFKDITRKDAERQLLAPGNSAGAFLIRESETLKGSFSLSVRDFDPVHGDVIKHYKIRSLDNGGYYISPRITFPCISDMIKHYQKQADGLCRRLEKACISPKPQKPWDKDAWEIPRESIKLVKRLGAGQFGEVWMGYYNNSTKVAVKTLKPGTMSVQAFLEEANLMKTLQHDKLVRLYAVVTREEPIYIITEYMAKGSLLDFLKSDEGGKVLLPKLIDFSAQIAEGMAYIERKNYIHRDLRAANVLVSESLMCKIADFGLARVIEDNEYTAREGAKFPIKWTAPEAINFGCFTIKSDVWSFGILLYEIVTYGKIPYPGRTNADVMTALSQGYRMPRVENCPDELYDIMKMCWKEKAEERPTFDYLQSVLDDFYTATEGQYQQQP
Description: GSK_PKIS: LYN A (splice variant) mean inhibition at 0.1 uM [Nanosyn]
measured-quantity: inhibition (%)

- COc1ccc(Nc2ncc(-c3ccccc3)o2)cc1OC: 7.52
- COC(=O)Nc1nc2ccc(Oc3ccc(NC(=O)Nc4cc(C(F)(F)F)ccc4F)cc3)cc2s1: 28.7
- COc1cc2c(cc1Nc1nc(Nc3cccc(F)c3C(N)=O)c3cc[nH]c3n1)N(C(=O)CN1CCN(C(C)C)CC1)CC2: 0.63
- CCn1c(-c2nonc2N)nc2cncc(C(=O)NCCNC)c21: 5.55
- CC1(C)CC(n2cnc(-c3ccc(F)cc3)c2-c2ccnc(N)n2)CC(C)(C)N1: 0.33
- c1cnn2ncc(-c3ccnc(NCCCN4CCOCC4)n3)c2c1: 5.49
- COc1ccc(-c2nn3ncccc3c2-c2ccnc(Nc3ccc(F)c(F)c3)n2)cc1: 6.17
- Cc1cc(O)cc(C)c1/C=C/c1cncc(C(N)=O)c1: 14.8
- CCOc1ccc2c(-c3ccnc(Nc4cc(OC)cc(C(F)(F)F)c4)n3)cnn2n1: 2.55
- FC(F)(F)CNc1nccc(-c2cnn3ncccc23)n1: 3.13
